Source listed as ChEMBL document CHEMBL1132758.

Quick reference: IC50 of the listed items.
- target or system: Estrogen receptor beta (Homo sapiens)
- Sequence (Q92731 whole entry): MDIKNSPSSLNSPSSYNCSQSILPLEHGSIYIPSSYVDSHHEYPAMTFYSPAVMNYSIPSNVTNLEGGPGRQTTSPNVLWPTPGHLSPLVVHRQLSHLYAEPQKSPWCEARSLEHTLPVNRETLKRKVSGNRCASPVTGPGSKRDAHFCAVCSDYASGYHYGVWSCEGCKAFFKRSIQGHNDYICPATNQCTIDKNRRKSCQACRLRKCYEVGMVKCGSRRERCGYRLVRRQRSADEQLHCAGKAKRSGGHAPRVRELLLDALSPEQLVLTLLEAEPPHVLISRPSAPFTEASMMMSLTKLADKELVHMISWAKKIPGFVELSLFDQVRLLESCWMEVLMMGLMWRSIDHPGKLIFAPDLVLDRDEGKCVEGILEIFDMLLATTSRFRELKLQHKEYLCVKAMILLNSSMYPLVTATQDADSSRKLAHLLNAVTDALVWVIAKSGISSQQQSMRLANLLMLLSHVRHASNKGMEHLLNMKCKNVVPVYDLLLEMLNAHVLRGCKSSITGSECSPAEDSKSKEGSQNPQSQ
Give just the number in nM; leave the unit off.

Here's what some known entries look like.
What is its IC50 for Estrogen receptor beta (Homo sapiens)? Entry: C[C@]12CC[C@@H]3c4ccc(O)cc4C(O)[C@@H](Sc4ccc(Br)cc4)[C@H]3[C@@H]1CC[C@@H]2O (stereo partly specified)
63

What is its IC50 for Estrogen receptor beta (Homo sapiens)? Entry: `C[C@]12CC[C@@H]3c4ccc(O)cc4C[C@@H](Sc4ccc(/C=C/C(=O)O)cc4)[C@H]3[C@@H]1CC[C@@H]2O`
21

What is its IC50 for Estrogen receptor beta (Homo sapiens)? Entry: `CCCCN(C)C(=O)CCCCCCCCCCS[C@H]1[C@@H]2[C@H](CC[C@]3(C)[C@@H](O)CC[C@@H]23)c2ccc(O)cc2[C@H]1O`
32

What is its IC50 for Estrogen receptor beta (Homo sapiens)? Entry: `CCCCN(C)C(=O)CCCCCCCCCCS[C@@H]1Cc2cc(O)ccc2[C@H]2CC[C@]3(C)[C@@H](O)CC[C@H]3[C@@H]21`
9

What is its IC50 for Estrogen receptor beta (Homo sapiens)? Entry: `CN(C)C(=O)/C=C/c1ccc(S[C@@H]2Cc3cc(O)ccc3[C@H]3CC[C@]4(C)[C@@H](O)CC[C@H]4[C@@H]32)cc1`
59

// next entry
What is its IC50 for Estrogen receptor beta (Homo sapiens)? Entry: `CCCCN(C)C(=O)CCCCCCCCCCS[C@@H]1C(=O)c2cc(O)ccc2[C@H]2CC[C@]3(C)[C@@H](O)CC[C@H]3[C@H]12`
37
